Where do the numbers come from? From patent US10676458B2.

# target: human GPR40 (Homo sapiens (Human))
# Sequence (O14842 whole entry): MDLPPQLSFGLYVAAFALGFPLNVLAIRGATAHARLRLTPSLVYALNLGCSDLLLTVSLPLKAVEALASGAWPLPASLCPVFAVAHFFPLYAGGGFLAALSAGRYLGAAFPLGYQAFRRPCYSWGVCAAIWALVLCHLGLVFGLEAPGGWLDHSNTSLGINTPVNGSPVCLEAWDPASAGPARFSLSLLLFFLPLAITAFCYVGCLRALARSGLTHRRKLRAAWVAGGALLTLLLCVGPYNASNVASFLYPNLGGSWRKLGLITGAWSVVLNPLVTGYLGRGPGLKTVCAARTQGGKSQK
# testProtocol: Inositol Phosphate Turnover (IP1) Assay
# statedConditions: HEK cells stably expressing human GPR40; 60 min incubation; CisBio IP-One kit
# Method: Human GPR40 stable cell-lines were generated in HEK cells. The expression plasmids were transfected using lipofectamine (Life Technologies) following manufacturer's instructions. […] The assay was performed in 384-well format. […] The plates were then read in a Perkin Elmer EnVision or equivalent reader able to measure FRET. […] Data was normalized to % activity using a reference compound and EC50s determined using a standard 4-paramter fit.
quantityName: EC50 (nM)
// return numeric value only (unit: nM, not printed)

[
  {
    "molecule": "C[C@H](C(=O)O)[C@H](c1ccc2c(c1)NC(C1CCN(Cc3cc(C(F)(F)F)ccc3C(F)(F)F)CC1)CC2)C1CC1 (single isomer, unassigned) [Example 6]",
    "target": "human GPR40 (Homo sapiens (Human))",
    "observedValue": 35
  },
  {
    "molecule": "COc1ccc(F)c(-c2ccc(C3COc4ccc([C@H](C5CC5)[C@H](C)C(=O)O)cc4N3)cc2)c1 (single isomer, unassigned) [Example 17]",
    "target": "human GPR40 (Homo sapiens (Human))",
    "observedValue": 10
  }
]

Returns the measured EC50 for the input molecule. Input: C[C@H](C(=O)O)[C@H](c1ccc2c(c1)CN(C1CCN(Cc3cc(C(F)(F)F)ccc3C(F)(F)F)CC1)CC2)C1CC1 [Example 1] 611
